Record form. Attribute: IC50. Fill in for each entry.
test system: NCI-H2122 cells; assay: NCI-H2122 CTG proliferation assay (120 h) (NSCLC, G12C); format: cell-based; details: Homo sapiens
Give bare numbers, in nM.

Use these answered entries as a reference point.
{"columns": ["compound", "IC50 (nM)"],
 "data": [
  ["C[C@H](Oc1cc(-n2cc3c(n2)CCN(C)C3)nc(-c2noc3c2CCC[C@@]32CCCc3sc(N)c(C#N)c32)n1)[C@@H]1CCCN1C [II-141]", 2830],
  ["C[C@H](Oc1cc(-c2ccccn2)nc(-c2noc3c2CCC[C@@]32CCCc3sc(N)c(C#N)c32)n1)[C@@H]1CCCN1C [II-85]", 1120],
  ["C[C@H](Oc1cc(N2CC[C@H](N(C)C)C2)nc(-c2noc3c2CCC[C@@]32CCCc3sc(N)c(C#N)c32)n1)[C@@H]1CCCN1C [II-49]", 2840],
  ["C[C@H](Oc1cc(-n2cncc3ccnc2-3)nc(-c2onc3c2CCC[C@@]32CCCc3sc(N)c(C#N)c32)n1)[C@@H]1CCCN1C [I-14]", 2870],
  ["C[C@H](Oc1cc(N2CC3CCC(C2)N3)nc(-c2noc3c2CCC[C@@]32CCCc3sc(N)c(C#N)c32)n1)[C@@H]1CCCN1C [II-34]", 9010]
]}

Please go through the list and note IC50 for each compound.
1. C[C@H](Oc1cc(N2CC3COCC(C2)N3)nc(-c2noc3c2CCC[C@@]32CCCc3sc(N)c(C#N)c32)n1)[C@@H]1CCCN1C [II-160]
2. C[C@H](Oc1cc(N2CCOC3(COC3)C2)nc(-c2noc3c2CCC[C@@]32CCCc3sc(N)c(C#N)c32)n1)[C@@H]1CCCN1C [II-77]
3. C[C@H](Oc1cc(-c2ccn(C3COC3)n2)nc(-c2onc3c2CCC[C@@]32CCCc3sc(N)c(C#N)c32)n1)[C@@H]1CCCN1C [I-34]

Response given:
1: 3190; 2: 1780; 3: 1070

Would you mind giving IC50 for every compound in the list below?
1. C[C@H](Oc1cc(-n2cc(-c3cccnc3)nn2)nc(-c2noc3c2CCC[C@@]32CCCc3sc(N)c(C#N)c32)n1)[C@@H]1CCCN1C [II-123]
2. C[C@H](Oc1cc(-n2ccc(C#N)n2)nc(-c2noc3c2CCC[C@@]32CCCc3sc(N)c(C#N)c32)n1)[C@@H]1CCCN1C [II-102]
3. C[C@H](Oc1cc(N2CCN(C)CC2)nc(-c2noc3c2CCC[C@@]32CCCc3sc(N)c(C#N)c32)n1)[C@@H]1CCCN1[C@@H]1CCOC1 [II-39]
4. C[C@H](Oc1cc(N2CCOC2=O)nc(-c2noc3c2CCC[C@@]32CCCc3sc(N)c(C#N)c32)n1)[C@@H]1CCCN1C [II-143]

Response given:
[878, 84, 3600, 584]

Memo: C[C@H](Oc1cc(N2CC[C@H](N3CCCC3)C2)nc(-c2noc3c2CCC[C@@]32CCCc3sc(N)c(C#N)c32)n1)[C@@H]1CCCN1C [II-14] , reported IC50: 1390

###

Task for the reader: assign each of the following compounds its reported log10(IC50).
tested on: LOVO cells; assay: LOVO CTG proliferation assay (120 h) (CRC, G13D); format: cell-based; details: Homo sapiens, CTG 120 h
// do not treat as linear: log10 of IC50, unit nM

Answered examples (3):
{"columns": ["chemical string", "quantitative readout"],
 "data": [
  ["C[C@H](Oc1cc(N2CCNC3(COC3)C2)nc(-c2noc3c2CCC[C@@]32CCCc3sc(N)c(C#N)c32)n1)[C@@H]1CCCN1C", 2.26],
  ["C[C@H](Oc1cc(N2CCN(C)C3(CC3)C2)nc(-c2noc3c2CCC[C@@]32CCCc3sc(N)c(C#N)c32)n1)[C@@H]1C[C@@H](F)CN1C", 2.43],
  ["C[C@H](Oc1cc(-n2cc3ccn([C@H]4CCOC4)c(=O)c3n2)nc(-c2noc3c2CCC[C@@]32CCCc3sc(N)c(C#N)c32)n1)[C@@H]1CCCN1C", 2.01]
]}

For each entry beneath this line, provide reported log10(IC50).
1. C[C@H](Oc1cc(N2CCN(C)CC2)nc(-c2noc3c2CCC[C@@]32CCCc3sc(N)c(C#N)c32)n1)[C@@H]1CCCN1[C@@H]1CCOC1
2. CO[C@@H]1C[C@@H]([C@H](C)Oc2cc(-c3ccn(C)n3)nc(-c3onc4c3CCC[C@@]43CCCc4sc(N)c(C#N)c43)n2)N(C)C1
3. C[C@H](Oc1cc(-c2ccn(C)n2)nc(-c2noc3c2CCC[C@@]32CCCc3sc(N)c(C#N)c32)n1)[C@@H]1C[C@@H](F)CN1C
4. C[C@H](Oc1cc(N2CCN(C)C3(CCC3)C2)nc(-c2onc3c2CCC[C@@]32CCCc3sc(N)c(C#N)c32)n1)[C@@H]1CCCN1C
5. C[C@H](Oc1cc(N2CC[C@H](N(C)C)C2)nc(-c2noc3c2CCC[C@@]32CCCc3sc(N)c(C#N)c32)n1)[C@@H]1CCCN1C
6. C[C@H](Oc1cc(N2CCOC3(CC3)C2)nc(-c2noc3c2CCC[C@@]32CCCc3sc(N)c(C#N)c32)n1)[C@@H]1CCCN1C

Response given:
1. 3.47
2. 1.90
3. 2.54
4. 2.97
5. 2.81
6. 2.44

Hey, quick one: what's log10(IC50) for each of these?
1. C[C@H](Oc1cc(-c2ccc(N)nc2)nc(-c2onc3c2CCC[C@@]32CCCc3sc(N)c(C#N)c32)n1)[C@@H]1CCCN1C
2. [2H]C([2H])([2H])N1C[C@H](F)C[C@H]1[C@H](C)Oc1cc(N2CCN(C)C3(CC3)C2)nc(-c2noc3c2CCC[C@@]32CCCc3sc(N)c(C#N)c32)n1
3. C[C@H](Oc1cc(N2CCOC3(COC3)C2)nc(-c2noc3c2CCC[C@@]32CCCc3sc(N)c(C#N)c32)n1)[C@@H]1CCCN1C
4. C[C@H](Oc1cc(-c2cnsc2)nc(-c2noc3c2CCC[C@@]32CCCc3sc(N)c(C#N)c32)n1)[C@@H]1CCCN1C
5. C[C@H](Oc1cc(N2Cc3cnn(C)c3C2)nc(-c2noc3c2CCC[C@@]32CCCc3sc(N)c(C#N)c32)n1)[C@@H]1CCCN1C
6. C[C@H](Oc1cc(N2CCNC[C@]23CCOC3)nc(-c2onc3c2CCC[C@@]32CCCc3sc(N)c(C#N)c32)n1)[C@@H]1CCCN1C

Response given:
3.03
2.69
1.59
2.49
2.81
2.92

Below are some compounds; for each one, tell me its log10(IC50).
1. C[C@H](Oc1cc(N2CC3CCC(C2)N3)nc(-c2noc3c2CCC[C@@]32CCCc3sc(N)c(C#N)c32)n1)[C@@H]1CCCN1C
2. COCCNC(=O)c1ccn(-c2cc(O[C@@H](C)[C@@H]3CCCN3C)nc(-c3onc4c3CCC[C@@]43CCCc4sc(N)c(C#N)c43)n2)n1
3. C[C@H](Oc1cc(N2CCN(C)C2=O)nc(-c2noc3c2CCC[C@@]32CCCc3sc(N)c(C#N)c32)n1)[C@@H]1CCCN1C
4. Cc1cn(-c2cc(O[C@@H](C)[C@@H]3CCCN3C)nc(-c3noc4c3CCC[C@@]43CCCc4sc(N)c(C#N)c43)n2)nn1

Response given:
3.38
1.46
2.45
3.00

###

system: SAS cells; experiment: SAS CTG proliferation assay (120 h) (HNSCC, wt amplified); format: cell-based
pIC50: −log10 of the molar value.
Please enter 1 where pIC50 is greater than or equal to 7, and -1 where it is lower.

{"columns": ["chemical string", "system", "class"],
 "data": [
  ["C[C@H](Oc1cc(-c2ccn(C)n2)nc(-c2onc3c2CCC[C@@]32CCCc3sc(N)c(C#N)c32)n1)[C@@H]1CCCN1C", "SAS cells", 1],
  ["C[C@H](Oc1cc(N2CCNC3(COC3)C2)nc(-c2noc3c2CCC[C@@]32CCCc3sc(N)c(C#N)c32)n1)[C@@H]1CCCN1C", "SAS cells", -1],
  ["CO[C@H]1CCN(C)[C@@H]1[C@H](C)Oc1cc(-n2ccc(C(=O)N[C@H]3CCOC3)n2)nc(-c2noc3c2CCC[C@@]32CCCc3sc(N)c(C#N)c32)n1", "SAS cells", 1],
  ["CO[C@H]1CCN(C)[C@@H]1[C@H](C)Oc1cc(-n2ccc(C(N)=O)n2)nc(-c2noc3c2CCC[C@@]32CCCc3sc(N)c(C#N)c32)n1", "SAS cells", 1],
  ["CO[C@H]1CCN(C)[C@@H]1[C@H](C)Oc1cc(-n2ccc(C(=O)N[C@H]3CCOC3)n2)nc(-c2onc3c2CCC[C@@]32CCCc3sc(N)c(C#N)c32)n1", "SAS cells", 1]
]}

Pending molecule:
Challenge: I'd appreciate it if you could say whether C[C@H](Oc1cc(-n2ccc(-c3ccccn3)n2)nc(-c2noc3c2CCC[C@@]32CCCc3sc(N)c(C#N)c32)n1)[C@@H]1CCCN1C has pIC50 at least equal to 7.
Response given: 1

Source listed as patent US20240174690A1.
